# experimentalSystem: WT IDH1 (Homo sapiens, UniProt O75874)
# Construct: made in house
# Sequence (O75874 whole entry): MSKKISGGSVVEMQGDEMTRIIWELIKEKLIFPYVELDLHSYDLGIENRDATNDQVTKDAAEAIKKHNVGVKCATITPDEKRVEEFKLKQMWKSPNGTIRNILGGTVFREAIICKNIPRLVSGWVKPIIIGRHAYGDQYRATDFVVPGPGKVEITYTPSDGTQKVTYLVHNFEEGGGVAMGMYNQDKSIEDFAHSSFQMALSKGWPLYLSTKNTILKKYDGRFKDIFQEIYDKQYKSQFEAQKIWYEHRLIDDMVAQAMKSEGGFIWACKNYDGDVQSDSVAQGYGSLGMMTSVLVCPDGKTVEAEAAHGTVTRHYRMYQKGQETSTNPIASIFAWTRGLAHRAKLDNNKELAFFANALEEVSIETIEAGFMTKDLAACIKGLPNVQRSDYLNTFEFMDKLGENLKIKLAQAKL
# assayProcedure: In vitro enzyme inhibition assay, WT IDH1 (NADPH production)
# Format: biochemical
# measurementContext: n.p = no clear inhibitory detected
Counter-ions that a name gives are not always drawn.
quantity: IC50 for enzyme activities, WT

| compound | IC50 for enzyme activities, WT |
| --- | --- |
| COc1ccc(-c2ccc3cc(C(=O)O)ccc3c2)cc1C12CC3CC(CC(C3)C1)C2 | n.p |
| CCCNCC(O)COc1ccccc1C(=O)CCc1ccccc1 (stereo not drawn) [Propafenone Hydrochloride] | n.p |
| CN(C)c1cc(NC(=O)CNC(C)(C)C)c(O)c2c1C[C@H]1C[C@H]3[C@H](N(C)C)C(O)=C(C(N)=O)C(=O)[C@@]3(O)C(O)=C1C2=O | n.p |
| CN(C)[C@@H]1C(O)=C(C(N)=O)C(=O)[C@@]2(O)C(O)=C3C(=O)c4c(O)ccc(Cl)c4[C@@H](O)[C@H]3C[C@@H]12 | n.p^e |
| OC(Cn1cncn1)(Cn1cncn1)c1ccc(F)cc1F | n.p |

Could you now look at the following compound, please?
// query # lookup: IC50 for enzyme activities, WT of C=C1c2cccc(O)c2C(=O)C2=C(O)[C@]3(O)C(=O)C(C(N)=O)=C(O)[C@@H](N(C)C)[C@@H]3[C@@H](O)[C@H]12
// result n.p
